Each entry below lists one item and its recorded IC50 value.
- System: U-20S
- test.protocol: Cell viability determination (MTT), U-20S
- Type: cell-based
- study.conditions: osteosarcoma, 48 hour incubation, read-out: Drug concentrations for 50% cell viability (IC50)
Form entry: value (µM) — number only.

INSERT INTO results (compound, readout_number) VALUES
  ('CC(=O)Oc1c2ccccc2c(OC(C)=O)c2oc(C(C)=O)cc12 [reference compound]', 1),
  ('CC(=O)c1cc2c(OC(=O)C(C)C)c3ccccc3c(OC(=O)C(C)C)c2o1 [compound I]', 5.7);

Please look at the following compound next.
Ask: Notebook: pull reported IC50 for U-20S, entry CC(=O)c1cc2c(OC(=O)C(Cl)Cl)c3ccccc3c(OC(=O)C(Cl)Cl)c2o1 [compound VI]
Reply: 0.8

###

- System: QGY-7701
- test.protocol: Cell viability determination (MTT), QGY-7701
- Assay type: cell-based
- study.conditions: QGY7701, QGY-7701, liver cancer, 48 hour incubation, read-out: Drug concentrations for 50% cell viability (IC50)
Each entry below lists one item and its recorded pIC50 value.
// pIC50 is dimensionless: -log10 of concentration (M)

The following compounds have reported results that may help.
INSERT INTO results (smiles_representation, target, readout_number) VALUES
  ('CC(=O)Oc1c2ccccc2c(OC(=O)CNC(=O)OC(C)(C)C)c2oc(C(C)=O)cc12', 'QGY-7701', 5.49),
  ('CC(=O)c1cc2c(OC(=O)C(C)C)c3ccccc3c(OC(=O)C(C)C)c2o1', 'QGY-7701', 5.54);

Please look at the following compound next.
Ask: Name the reported pIC50 value associated with the compound CC(=O)c1cc2c(O)c3ccccc3c(OC(=O)CNC(=O)OC(C)(C)C)c2o1
Reply: 5.32

###

- Tested on: Panc-1
- test.protocol: Cell viability determination (MTT), Panc-1
- Assay type: cell-based
- study.conditions: Homo sapiens, Panc-1, pancreatic cancer, 48 hour incubation, read-out: Drug concentrations for 50% cell viability (IC50)
Label fulfilled when IC50 is strictly below 2 µM; at or above that, label not fulfilled.

Completed entries (count: 4):
INSERT INTO measurements (compound, cat) VALUES
  ('CC(=O)c1cc2c(O)c3ccccc3c(OC(=O)CNC(=O)OC(C)(C)C)c2o1 [compound III]', 'fulfilled'),
  ('CC(=O)c1cc2c(OC(=O)C(C)(C)C)c3ccccc3c(OC(=O)C(C)(C)C)c2o1 [compound II]', 'not fulfilled'),
  ('CC(=O)Oc1c2ccccc2c(OC(=O)CNC(=O)OC(C)(C)C)c2oc(C(C)=O)cc12 [compound IV]', 'fulfilled'),
  ('CC(=O)Oc1c2ccccc2c(OC(C)=O)c2oc(C(C)=O)cc12 [reference compound]', 'fulfilled');

Now let's try a different one.
Ask: Find out if reported IC50 for CC(=O)c1cc2c(OC(=O)C(Cl)Cl)c3ccccc3c(OC(=O)C(Cl)Cl)c2o1 [compound VI] is less than 2 µM
Reply: fulfilled

###

- System: MES-SA
- test.protocol: Cell viability determination (MTT), MES-SA
- Assay type: cell-based
- study.conditions: Homo sapiens, leiomyosarcoma, 48 hour incubation, read-out: Drug concentrations for 50% cell viability (IC50)
measurement.type: pIC50
// pIC50 is dimensionless: -log10 of concentration (M)

INSERT INTO results (molecule, readout_number) VALUES
  ('CC(=O)Oc1c2ccccc2c(OC(=O)CNC(=O)OC(C)(C)C)c2oc(C(C)=O)cc12', 6.38),
  ('CC(=O)Oc1c2ccccc2c(OC(C)=O)c2oc(C(C)=O)cc12 [reference compound]', 6.22);

Ask: Name the reported pIC50 value associated with the molecule CC(=O)c1cc2c(OC(=O)C(Cl)Cl)c3ccccc3c(OC(=O)C(Cl)Cl)c2o1
Reply: 6.57

Ask: Now consider CC(=O)c1cc2c(O)c3ccccc3c(OC(=O)CNC(=O)OC(C)(C)C)c2o1 and answer again.
Reply: 6.33

// provenance: patent US9150530B2
